Lab note: Ki readings collected with Baculoviral IAP repeat-containing protein 2 [269-336] (Homo sapiens) for the following molecules.
Sequence (Q13490 269-336): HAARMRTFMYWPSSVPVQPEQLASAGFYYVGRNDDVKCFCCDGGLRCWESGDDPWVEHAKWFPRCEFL
Numbers only, in nM.

INSERT INTO measurements (itemsmiles, measvalue) VALUES
  ('CN[C@@H](C)C(=O)N[C@H](C(=O)N1CCC[C@H]1C(=O)Nc1ccccc1-c1ncccn1)C1CCCCC1', 37);

In plain terms, CN[C@@H](C)C(=O)N[C@H](C(=O)N1CC[C@H](C)[C@H]1C(=O)Nc1cc(C)nn1-c1ccccc1)C1CCCCC1 has a documented Ki of 10

----------
Target: Baculoviral IAP repeat-containing protein 3 [255-322] (Homo sapiens)
Sequence (Q13489 255-322): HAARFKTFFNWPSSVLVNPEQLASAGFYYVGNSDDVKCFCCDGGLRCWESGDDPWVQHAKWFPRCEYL
pKi: −log10 of the molar value.
outcomeMeasure: pKi

// pKi (Baculoviral IAP repeat-containing protein 3 [255-322] (Homo sapiens)) for CN[C@H](C)C(=O)N[C@@H](C(=O)N1CCC[C@@H]1c1nc2c(-c3ccccc3Cl)nccc2s1)C1CCOCC1 [ent-PS-1] = < 4.47

----------
Assay: Samples for fluorescence polarization affinity measurements were prepared by addition of serial dilutions of […] to each well containing antagonist and polarization probe in the buffer. Samples were read after 30-min incubation. Fluorescence polarization values were plotted as a function of the antagonist concentra
Conditions: pH 7.2
outcomeMeasure: Ki (µM)
Give bare numbers, in µM.

Below are worked cases with known answers.
INSERT INTO results (itemsmiles, outcomemeasure, measvalue) VALUES
  ('CN[C@@H](C)C(=O)N[C@H](C(=O)N1CC[C@H](C)[C@H]1C(=O)Nc1cc(C)nn1-c1ccccc1)C1CCCCC1', 'Ki', 2.4),
  ('CN[C@@H](C)C(=O)N[C@H](C(=O)N1CCC[C@H]1C(=O)Nc1ccccc1-c1ncccn1)C1CCCCC1', 'Ki', 5.05);

Lab note: next compound to report on.
Entry under test: CN[C@@H](C)C(=O)N[C@H](C(=O)N1CCC[C@H]1c1nc2c(-c3ccccc3Cl)nccc2s1)C1CCOCC1 . Its Ki was 0.033
